As shown below, each of these compounds has a reported GI50 value.
Tested on: SNB-19
Assay: NCI tumour cell line growth inhibition, 48 h
Active and inactive are the calls of the source. No stated cut-off is given here; in the data, active = GI50 up to about 1.1 µM and inactive = higher.

- compound: "c1ccc(/N=C2\\SC(=NNc3ccccc3)S\\C2=N/c2ccccc2)cc1"
  GI50: "72.6 µM (inactive)"
- compound: "Cc1ccc2c(c1)C(=S)N1CSCC1c1nncn1-2 (stereo not given)"
  GI50: "> 100 µM (inactive)"
- compound: "CN(N=O)C(=O)NC(CCCCNC(=O)OCc1ccccc1)C(=O)OCc1ccccc1 (stereo not given)"
  GI50: "> 100 µM (inactive)"
- compound: "C=C1C(=O)[C@@]23CC[C@H]4[C@@](C)(CCC[C@@]4(C)C(=O)OC)[C@@H]2CC[C@]1(O)C3"
  GI50: "13 µM (inactive)"
- compound: "CC(C)(C)c1cc2c(O)c(c1)Cc1cc(C(C)(C)C)cc(c1O)Cc1cc(C(C)(C)C)cc(c1O)Cc1cc(C(C)(C)C)cc(c1O)Cc1cc(C(C)(C)C)cc(c1O)Cc1cc(C(C)(C)C)cc(c1O)Cc1cc(C(C)(C)C)cc(c1O)Cc1cc(C(C)(C)C)cc(c1O)C2"
  GI50: "> 50 µM (inactive)"
- compound: "C[C@]12CCC(=O)C(O)=C1CCC2=O"
  GI50: "> 100 µM (inactive)"
- compound: "Cn1c(=O)c2c(nc(NCCCCl)n2CC(=O)NCCCCl)n(C)c1=O"
  GI50: "> 100 µM (inactive)"
- compound: "Nc1nc(-c2ccc(Cl)c([N+](=O)[O-])c2)cs1"
  GI50: "68.2 µM (inactive)"
- compound: "c1ccc2c(c1)SCCCSCCCS2"
  GI50: "> 100 µM (inactive)"
- compound: "CCCCCCCCCCOC1C(C(O)CNCCCN(C)C)OC2OC3(CCCCC3)OC21 (stereo not given)"
  GI50: "1.75 µM (inactive)"
- compound: "CCCCCCCCCC(=O)CC(=O)c1c(O)cccc1O"
  GI50: "53.1 µM (inactive)"
- compound: "Cc1ccc(N2C(=O)C=C(C3=C(O)C(=O)N(c4ccc(C)cc4)C3=O)C2=O)cc1"
  GI50: "> 100 µM (inactive)"
- compound: "Cn1c(=O)n2n(c1=O)C([S+]([O-])c1ccccc1)C2 (stereo not given)"
  GI50: "> 100 µM (inactive)"
- compound: "COc1ccc2nc3ccc(OC)cc3c([S+]([O-])Cc3ccc([N+](=O)[O-])cc3)c2c1 (stereo not given)"
  GI50: "21.3 µM (inactive)"
- compound: "CC1=C(/C=C/C(C)=C/C2CC(N(C)C)=CC(=O)O2)C(C)(C)CCC1 (stereo not given)"
  GI50: "15.2 µM (inactive)"
- compound: "CCOC(=O)C1(Br)S(=O)(=O)OCCOS1(=O)=O"
  GI50: "> 100 µM (inactive)"
- compound: "Clc1ccc(-c2noc(CN3CCCCC3)n2)cc1"
  GI50: "> 100 µM (inactive)"
- compound: "CC(=O)Nc1ccc(Nc2cc(=O)n(C)c(=O)[nH]2)cc1"
  GI50: "> 100 µM (inactive)"
- compound: "CCOc1ccc(/C=C2\\NC(=S)N(/C=C3\\C(=O)Oc4ccccc4C3=O)C2=O)cc1"
  GI50: "22.8 µM (inactive)"
- compound: "CCOC(=O)/C(C#N)=C(/NNc1ccccc1)c1ccncc1C(=O)O"
  GI50: "> 100 µM (inactive)"
